src = the supplement of paper PMC8728848

Molecular target: Neu5Gc(a2-3)Gal(b1-4)[Fuc(a1-3)]GlcNAc
Experiment: glycan array binding signal (z-score within array); higher = stronger binding
Details: glycan notation: IUPAC condensed, linker removed
Many of the other results were omitted from the sample, so the strongest signals are more common in it than they were.
Entry flag: T if glycan array binding signal (z-score) reaches 0.1; F if it does not.

Record excerpt, results attached:
{"BINDER": "HA-11100 (Pseudomonas aeruginosa), Q02G51_PSEAB (protein) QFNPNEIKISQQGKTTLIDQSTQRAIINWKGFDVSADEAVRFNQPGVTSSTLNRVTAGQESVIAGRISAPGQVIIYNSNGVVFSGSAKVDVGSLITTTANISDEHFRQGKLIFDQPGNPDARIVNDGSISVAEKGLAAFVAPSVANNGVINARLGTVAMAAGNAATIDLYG", "LABEL CLASS": "F"}
{"BINDER": "Pwp6 (Candida glabrata) (protein) MGSSHHHHHHSSGLVPRGSHMASANLPKLTNICQIPDNVKKTSGFKGEIRRIGLFPPGGDYTYLLKFPSTGSTASDTISLTTKPQLSTSGWFPSLFGHTYFIKADLLVYMVAYFVPTETGEYTFKLVNSDDAAVMYVGNPSAFPCGSIDTWPEPRKEDINVCDKISASTKLYMEKGLAYPVRLVWYNGGGDGQFNAQFIDPSGTTHTDWNGYVWQYDACTDCDYK", "LABEL CLASS": "F"}
{"BINDER": "SJCP3842 (Schistosoma japonicum) (protein) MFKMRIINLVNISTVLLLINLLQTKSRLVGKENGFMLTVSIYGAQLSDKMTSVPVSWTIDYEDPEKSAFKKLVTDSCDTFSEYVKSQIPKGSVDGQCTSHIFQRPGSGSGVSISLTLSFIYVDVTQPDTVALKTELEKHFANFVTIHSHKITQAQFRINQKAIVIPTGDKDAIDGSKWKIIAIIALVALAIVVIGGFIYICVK", "LABEL CLASS": "T"}

[Q] Decide: glycan array binding signal (z-score) of Als3-2 (Candida albicans) (protein) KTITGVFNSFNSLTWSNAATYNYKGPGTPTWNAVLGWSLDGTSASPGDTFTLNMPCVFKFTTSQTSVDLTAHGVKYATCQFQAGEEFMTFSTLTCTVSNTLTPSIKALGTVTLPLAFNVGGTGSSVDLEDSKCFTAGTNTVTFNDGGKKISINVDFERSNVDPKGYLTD >= 0.1?
[A] F
